- Test system: CCRIS mutagenicity, Ames/micronucleus/aberration tests
- TEST_DESCRIPTION: CCRIS mutagenicity studies
- TEST_CONDITIONS: Test System: AMES SALMONELLA TYPHIMURIUM; Strain/Indicator: TA100; Metabolic Activation: HAMSTER, LIVER, S-9, AROCLOR 1254; Method: STANDARD PLATE
Active and inactive are the calls of the source. No rule for the calls is given here.
Returns: one label drawn from true for active, false for inactive

INSERT INTO results (record_smiles, group) VALUES
  ('NC(=Nc1ccccc1)Nc1ccccc1', 'true'),
  ('CC(=O)c1ccc(Cl)c(Cl)c1Cl', 'true'),
  ('CN=C=O', 'false');

Attention now turns to another entry.
For this molecule, state the assay outcome: `OCCCc1ccccc1`
false

###

- Test system: CCRIS mutagenicity, Ames/micronucleus/aberration tests
- TEST_DESCRIPTION: CCRIS mutagenicity studies
- TEST_CONDITIONS: Test System: AMES SALMONELLA TYPHIMURIUM; Strain/Indicator: TA100; Metabolic Activation: HAMSTER, LIVER, S-9, AROCLOR 1254 (10%); Method: PREINCUBATION
Calls of active or inactive are those of the source. The rule behind the calls is not given here.
Returns: one label drawn from Y = active, N = inactive

Reference set, count: 6
INSERT INTO measurements (compound, group) VALUES
  ('CCOP(=O)(OCC)OCC', 'N'),
  ('OC[P+](CO)(CO)CO', 'N'),
  ('CC1(C)CC(N=C=O)CC(C)(CN=C=O)C1 (stereo not given)', 'N'),
  ('O=C1C=C(O)c2ccccc2C1=O', 'N'),
  ('Nc1ccc(NCCO)c([N+](=O)[O-])c1', 'Y'),
  ('CCCCC(C=O)CC (stereo not given)', 'N');

For this compound, state the assay outcome: `c1ccc2c(c1)ccc1ccccc12`
N

For this compound, state the assay outcome: `FC(F)(F)c1cccc(Cl)c1`
N

For this compound, state the assay outcome: `CCOCCOC(=O)/C=C/c1ccc(OC)cc1`
N

For this compound, state the assay outcome: `O=P(OCCCl)(OCCCl)OCCCl`
N

For this compound, state the assay outcome: CC1CO1 (stereo not given)
Y

For this compound, state the assay outcome: `C=C(C)C(=O)OCCCCCCCCCC`
N

For this compound, state the assay outcome: `O=C(O)c1ccc2c(c1)C(=O)OC2=O`
N

For this compound, state the assay outcome: `CC(Cl)(Cl)[N+](=O)[O-]`
Y

For this compound, state the assay outcome: `CCn1cc(C(=O)O)c(=O)c2ccc(C)nc21`
N

###

- Test system: CCRIS mutagenicity, Ames/micronucleus/aberration tests
- TEST_DESCRIPTION: CCRIS mutagenicity studies
- TEST_CONDITIONS: Test System: AMES SALMONELLA TYPHIMURIUM; Strain/Indicator: TA100; Metabolic Activation: NONE; Method: STANDARD PLATE
Activity calls are given as the source filed them. The rule behind the calls is not given here.
Returns: one label drawn from YES (active), NO (inactive)

INSERT INTO measurements (compound, group) VALUES
  ('C[C@H]1[C@H](O)CCC2=CC(=O)[C@]3([C@@]4(CO)CO4)O[C@@H]3[C@@]21C', 'YES'),
  ('CCCCOCN(C(=O)CCl)c1c(CC)cccc1CC', 'NO'),
  ('CC(=O)Nc1snc2c(Cl)cc(Cl)cc12', 'NO'),
  ('N1=NC2[C@@H]3O[C@@H]3C1[C@H]1O[C@@H]21', 'NO'),
  ('COc1ccc(NC(=O)c2csc([N+](=O)[O-])c2)cc1', 'YES');

For this compound, state the assay outcome: Cn1c2ccccc2c(=O)c2c(O)cc3c(c21)CC(C1(C)CO1)O3 (stereo not drawn)
YES

For this compound, state the assay outcome: `COC1=CC(=O)c2c(ncc3c4c([nH]c23)CCCC4)C1=O`
YES

For this compound, state the assay outcome: `ClC/C=C/CCl`
YES
